experiment: Inhibition of CXCL8-induced cell migration in human PMN cells at 0.01 uM by chemotaxis assay; assay type: functional
Kindly return met if reported inhibition at 0.01 µM is no lower than 10%; return not met if it is lower.

compound=C[C@@H](C(=O)Nc1ccncc1)c1ccc(OS(=O)(=O)C(F)(F)F)cc1 group_label=met
compound="CC(C(=O)O)c1cccc(Oc2ccccc2)c1 (stereo not given)" group_label="not met"
compound="CC(C(=O)O)c1ccc(NS(=O)(=O)c2ccccc2Cl)cc1 (stereo not given)" group_label="not met"
compound="CC(C)=Cc1ccc(C(C)C(=O)O)cc1 (stereo not given)" group_label=met
compound=C[C@@H](C(=O)NS(=O)(=O)c1ccccc1Cl)c1ccc(OS(=O)(=O)C(F)(F)F)cc1 group_label=met
compound=C[C@@H](C(=O)NS(=O)(=O)c1ccccc1)c1ccc(OS(=O)(=O)C(F)(F)F)cc1 group_label=met
compound=CC(=O)c1cccc([C@@H](C)C(=O)O)c1 group_label="not met"
compound=C[C@@H](C(=O)NS(C)(=O)=O)c1ccc(OS(=O)(=O)C(F)(F)F)cc1 group_label=met
compound="CC(C(=O)O)c1cccc(C(=O)c2nccs2)c1 (stereo not given)" group_label=met
compound="C/C=C/c1cccc(C(C)C(=O)O)c1 (stereo not given)" group_label="not met"

Request: Does inhibition at 0.01 µM meet or surpass 10% for "C[C@@H](C(=O)Nc1cccnc1)c1ccc(OS(=O)(=O)C(F)(F)F)cc1" ?
Response: not met

Request: Does inhibition at 0.01 µM meet or surpass 10% for CC(C(=O)O)c1cccc(C(=O)c2ccco2)c1 (stereo not given) ?
Response: not met

Request: Does inhibition at 0.01 µM meet or surpass 10% for CC(C(=O)O)c1cccc(S(=O)(=O)c2ccccc2)c1 (stereo not given) ?
Response: not met

====

Listed molecules paired with reported inhibition at 0.01 µM
assay: Inhibition of CXCL8-induced cell migration in human PMN cells at 0.01 uM by chemotaxis assay; type: functional
Quick reminder: number only, in %, skip the unit.

// solved cases for inhibition at 0.01 µM follow
molecule="CC(O)c1cccc(C(C)C(=O)O)c1 (stereo not drawn)" value_observed=43
molecule="CC(C(=O)O)c1cccc(C(C)c2ccccc2)c1 (stereo not drawn)" value_observed=55

Request: For the molecule shown here, CC(C(=O)O)c1ccc(NS(=O)(=O)c2ccccc2)cc1 (stereo not drawn) , give the reported inhibition at 0.01 µM.
Response: 45

====

test: Inhibition of CXCL8-induced cell migration in human PMN cells at 0.01 uM by chemotaxis assay; format: functional
VALUE_KIND: inhibition at 0.01 µM (%)
Quick reminder: number only, in %, skip the unit.

// solved cases for inhibition at 0.01 µM follow
compound="CC(C)C(=O)c1cccc(C(C)C(=O)O)c1 (stereo unspecified)" value_kind="inhibition at 0.01 µM" value_observed=20
compound="CC(C(=O)O)c1ccc(C2CCCCC2)cc1 (stereo unspecified) [HEXAPROFEN]" value_kind="inhibition at 0.01 µM" value_observed=10
compound=C[C@@H](C(=O)NC1CC1)c1ccc(OS(=O)(=O)C(F)(F)F)cc1 value_kind="inhibition at 0.01 µM" value_observed=-11
compound=C[C@@H](C(=O)NS(=O)(=O)C(F)(F)F)c1ccc(OS(=O)(=O)C(F)(F)F)cc1 value_kind="inhibition at 0.01 µM" value_observed=-4
compound="CC(C(=O)O)c1ccc(OS(C)(=O)=O)cc1 (stereo unspecified)" value_kind="inhibition at 0.01 µM" value_observed=5
compound="CCc1ccccc1S(=O)(=O)Nc1ccc(C(C)C(=O)O)cc1 (stereo unspecified)" value_kind="inhibition at 0.01 µM" value_observed=47

Request: For the compound shown here, CC(C)c1ccc(C(C)C(=O)O)cc1 (stereo unspecified) , give the reported inhibition at 0.01 µM.
Response: 15

Request: For the compound shown here, "C[C@@H](C(=O)O)c1ccc(OS(=O)(=O)C(F)(F)F)cc1" , give the reported inhibition at 0.01 µM.
Response: 68

Request: For the compound shown here, CC(C(=O)O)c1ccc(CC2CC2)cc1 (stereo unspecified) , give the reported inhibition at 0.01 µM.
Response: 24

Request: For the compound shown here, CC(C(=O)O)c1ccc(OS(=O)(=O)C(F)(F)F)cc1 (stereo unspecified) , give the reported inhibition at 0.01 µM.
Response: 57

Request: For the compound shown here, "CC(C)ONC(=O)[C@H](C)c1ccc(OS(=O)(=O)C(F)(F)F)cc1" , give the reported inhibition at 0.01 µM.
Response: 50

Request: For the compound shown here, CC(Cc1cccc(C(C)C(=O)O)c1)c1ccccc1 (stereo unspecified) , give the reported inhibition at 0.01 µM.
Response: 0

Request: For the compound shown here, CC(C(=O)O)c1cccc(C(=O)C2CCCC2)c1 (stereo unspecified) , give the reported inhibition at 0.01 µM.
Response: -5

Request: For the compound shown here, CCC(O)c1cccc(C(C)C(=O)O)c1 (stereo unspecified) , give the reported inhibition at 0.01 µM.
Response: 57

Request: For the compound shown here, "C[C@@H](C(N)=O)c1ccc(OS(=O)(=O)C(F)(F)F)cc1" , give the reported inhibition at 0.01 µM.
Response: 60

Request: For the compound shown here, C/C=C/c1ccc(C(C)C(=O)O)cc1 (stereo unspecified) , give the reported inhibition at 0.01 µM.
Response: 11

Request: For the compound shown here, "C[C@@H](C(=O)NO)c1ccc(OS(=O)(=O)C(F)(F)F)cc1" , give the reported inhibition at 0.01 µM.
Response: 48

Request: For the compound shown here, CC(C(=O)O)c1ccc(-c2cccs2)cc1 (stereo unspecified) , give the reported inhibition at 0.01 µM.
Response: 11

Request: For the compound shown here, "C[C@@H](C(=O)NCC1CC1)c1ccc(OS(=O)(=O)C(F)(F)F)cc1" , give the reported inhibition at 0.01 µM.
Response: 12

Request: For the compound shown here, "C[C@@H](C(=O)NC1CCCC1)c1ccc(OS(=O)(=O)C(F)(F)F)cc1" , give the reported inhibition at 0.01 µM.
Response: 0

Request: For the compound shown here, CC(C(=O)O)c1ccc(N2CCCC2=O)cc1 (stereo unspecified) , give the reported inhibition at 0.01 µM.
Response: 10
